measured_target: T1, PNPase carrying a C-terminal Hisx6 tag (E. coli polynucleotide phosphorylase) (E. coli, UniProt P05055 1-711)
T1 construct: polynucleotide phosphorylase (PNPase), E. coli; Immobilised through the His tag on an NTA chip for SPR; also called PNPase C-His; PNPase with a 6xHisTag at the CTD; source: E. coli Evo21(DE3), purified (Ni-NTA, butyl-Sepharose HIC, Q, Superdex S200); not shown: His6, C-terminal, kept
T1 sequence (looked up): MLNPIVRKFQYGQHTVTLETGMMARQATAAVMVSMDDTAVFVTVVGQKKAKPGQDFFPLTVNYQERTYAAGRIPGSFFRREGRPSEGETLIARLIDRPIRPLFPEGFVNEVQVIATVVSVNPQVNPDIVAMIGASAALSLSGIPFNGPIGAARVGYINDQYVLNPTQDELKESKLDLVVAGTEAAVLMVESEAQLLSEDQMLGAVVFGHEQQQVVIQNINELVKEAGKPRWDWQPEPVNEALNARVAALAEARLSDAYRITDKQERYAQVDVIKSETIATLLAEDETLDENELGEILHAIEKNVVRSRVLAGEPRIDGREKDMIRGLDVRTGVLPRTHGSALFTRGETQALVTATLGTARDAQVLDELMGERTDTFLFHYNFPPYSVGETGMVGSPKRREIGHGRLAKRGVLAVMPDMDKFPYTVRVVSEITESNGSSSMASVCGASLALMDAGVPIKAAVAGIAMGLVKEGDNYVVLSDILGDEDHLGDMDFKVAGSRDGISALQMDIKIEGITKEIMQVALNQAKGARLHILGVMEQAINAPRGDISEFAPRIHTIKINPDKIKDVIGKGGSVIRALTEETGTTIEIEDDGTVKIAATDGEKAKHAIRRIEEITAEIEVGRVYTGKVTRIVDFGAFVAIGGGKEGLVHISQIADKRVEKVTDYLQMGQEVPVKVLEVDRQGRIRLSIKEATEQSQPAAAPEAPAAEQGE
measurement_protocol: SPR; PNPase with C-terminal His6 tag immobilised on Series S Sensor Chip NTA (5 RU); Biacore T200, 25°C; 20 mM HEPES pH 7.2, 150 mM NaCl, 5 mM MgCl2, 0.5 mM TCEP, 0.05% Tween 20; six peptide concentrations up to 9000 nM (up to 5000 nM for RNase E 985–1061); contact 60 s, dissociation 120 s
settings: both partners purified
measurement_label: Kd
Dear colleague, please send the value followed by its unit.

Req: Need Kd, item RNase E 985-1053 (domain or fragment, E. coli, UniProt P21513 985-1053, looked up, the SPR methods name a peptide 960–1053; Lacks the terminal Pro-rich motif; Limits differ between results (985–1053) and methods (960–1053); also called RNase E peptide 985–1053; RNase E 960–1053 (methods); source: E. coli Evo21(DE3), pMxe vector, purified (Ni-NTA, amylose, TEV, Q, Superdex 75); not shown: His6, N-terminal, cleaved; MBP, N-terminal, cleaved; intein, C-terminal, cleaved) VAAEVETVAAVEPEVTVEHNHATAPMTRAPAPEYVPEAPRHSDWQRPTFAFEGKGAAGGHTATHHASAA
Resp: 100 µM
